- Test system: MvaT
- assay-name: PBM 8-mer E-score (mean of HK and ME arrays) (E-score (dimensionless, -0.5 to 0.5)); higher = stronger relative binding preference
Whole data set: some 33,000 sequences, median “E-score (dimensionless, -0.5 to 0.5)” near -0.058, cut for the highest 2% near 0.35. The sample as a whole holds a higher share of the highest values than the screen did.

{"columns": ["input-sequence", "PBM 8-mer E-score"],
 "data": [
  ["GCTCAAAC", 0.0144],
  ["AACTTTAC", 0.275],
  ["AGTAGACA", -0.00875],
  ["CTGATGCC", -0.231],
  ["AACTTTAG", 0.211],
  ["AACTTTAA", 0.385],
  ["CTGAAAAG", -0.0791],
  ["TATGGACA", 0.0866],
  ["CACTTTAA", 0.274],
  ["CATGATAC", 0.111],
  ["CTGTTAAC", 0.141],
  ["ATGTTAAC", 0.363],
  ["GTGTTAAC", 0.219]
]}

====

- Tested on: MvaT
- assay-name: PBM 8-mer E-score (mean of HK and ME arrays) (E-score (dimensionless, -0.5 to 0.5)); higher = stronger relative binding preference
Over roughly 33,000 sequences, “E-score (dimensionless, -0.5 to 0.5)” has its median near -0.058; the highest 2% begin near 0.35. This is one part of a sample in which the highest values are shown more often than they occur.
Recorded PBM 8-mer E-score for the following sequences
endpoint-label: PBM 8-mer E-score

{"columns": ["input-sequence", "numeric-readout"],
 "data": [
  ["ACATTAAA", 0.359],
  ["CAGAAAGA", 0.0379],
  ["CGAACAAC", 0.0607],
  ["AGATTAAA", 0.178],
  ["CCTACCAG", -0.279],
  ["AAGCGGTG", -0.19],
  ["CAAAGGTA", -0.113],
  ["GCCTGTCC", -0.241],
  ["TGTTATAA", 0.437],
  ["TGTATTAA", 0.39],
  ["ATCCGAGG", -0.119],
  ["ACATTAAT", 0.382],
  ["CCCTTTCC", -0.188],
  ["AGATTAAT", 0.379],
  ["GGTCCGAA", -0.0643],
  ["GCATTGGA", -0.0184],
  ["CAACTCCA", -0.0538],
  ["ATATACAC", 0.336],
  ["GGTTATAC", 0.0501],
  ["ATATGCCA", 0.181],
  ["AGTATTAA", 0.328],
  ["CCAAATCC", -0.193],
  ["ATCCAAAA", 0.1],
  ["ACATTAAG", 0.265],
  ["ATGTTGGA", 0.125],
  ["CGTATTAG", 0.0961],
  ["ATCACGGG", -0.203],
  ["CCACCCTA", 0.0237],
  ["AATCTCGA", 0.179],
  ["ACGCACTC", -0.0389],
  ["GGGCCCTA", -0.218],
  ["GGTATTAA", 0.34],
  ["ACAGGACT", -0.164],
  ["ATATACAG", 0.379],
  ["GCCGATGA", -0.199],
  ["CGAGGTAC", -0.301]
]}

====

- Test system: MvaT
- assay-name: PBM 8-mer E-score (mean of HK and ME arrays) (E-score (dimensionless, -0.5 to 0.5)); higher = stronger relative binding preference
In all, about 33,000 sequences were measured (“E-score (dimensionless, -0.5 to 0.5)”: median about -0.058, highest 2% from about 0.35 on). What follows is part of a selection rich in the highest values, with near analogues and random picks from the rest.

{"columns": ["input-sequence", "PBM 8-mer E-score"],
 "data": [
  ["ATTTATCA", 0.301],
  ["ATTTATTC", 0.295],
  ["CTTAACTA", 0.305]
]}

====

- Tested on: MvaT
- assay-name: PBM 8-mer E-score (mean of HK and ME arrays) (E-score (dimensionless, -0.5 to 0.5)); higher = stronger relative binding preference
In all, about 33,000 sequences were measured (“E-score (dimensionless, -0.5 to 0.5)”: median about -0.058, highest 2% from about 0.35 on). For the sample, the highest values were picked, then their nearest neighbours and some sequences at random.
Class field: derived from PBM 8-mer E-score; ranges low group (below 0.2), middle group (0.2 to below 0.3), high group (0.3 or more)

{"columns": ["input-sequence", "tested-system", "class"],
 "data": [
  ["GAATCATA", "MvaT", "low group"],
  ["GAGTTAAC", "MvaT", "middle group"],
  ["TATACAAA", "MvaT", "high group"],
  ["GAATATCA", "MvaT", "middle group"],
  ["AATCAATT", "MvaT", "middle group"],
  ["ACTATATC", "MvaT", "middle group"],
  ["AGTAATGA", "MvaT", "low group"],
  ["AATAATAA", "MvaT", "high group"],
  ["CTAATACA", "MvaT", "high group"],
  ["TATAATCA", "MvaT", "high group"],
  ["AACCGCTC", "MvaT", "low group"],
  ["TAATAGAA", "MvaT", "middle group"],
  ["GGACACGA", "MvaT", "low group"],
  ["CAATATAA", "MvaT", "high group"],
  ["GATACAAA", "MvaT", "middle group"],
  ["TCCTTCAA", "MvaT", "low group"],
  ["AATAATAT", "MvaT", "high group"],
  ["TATTAAAA", "MvaT", "high group"],
  ["ACTATATA", "MvaT", "high group"],
  ["GCCAGAAC", "MvaT", "low group"],
  ["CCGACACG", "MvaT", "low group"],
  ["AATAAGAG", "MvaT", "middle group"],
  ["AATACAAG", "MvaT", "middle group"],
  ["AAGTTAAG", "MvaT", "middle group"],
  ["CGTTAATC", "MvaT", "low group"],
  ["ATATATCG", "MvaT", "high group"],
  ["GATTAAAA", "MvaT", "middle group"],
  ["AATAATCC", "MvaT", "middle group"],
  ["AAGTTACT", "MvaT", "high group"],
  ["AAGTTAAA", "MvaT", "high group"],
  ["ATATATCA", "MvaT", "high group"],
  ["ATCGACAC", "MvaT", "low group"],
  ["ATAATACC", "MvaT", "high group"],
  ["ATAATACG", "MvaT", "high group"],
  ["CAGGACAC", "MvaT", "low group"],
  ["AGTAATAG", "MvaT", "middle group"],
  ["CAATAAAC", "MvaT", "middle group"],
  ["GAATAGAA", "MvaT", "low group"],
  ["AATAATGA", "MvaT", "high group"],
  ["CAATATAC", "MvaT", "high group"],
  ["AATTAATG", "MvaT", "high group"],
  ["CAATATAG", "MvaT", "high group"],
  ["GCTATATA", "MvaT", "high group"],
  ["AGATATCC", "MvaT", "low group"],
  ["CTACATGC", "MvaT", "low group"],
  ["ACTAATGA", "MvaT", "low group"],
  ["GATTAAAC", "MvaT", "low group"],
  ["GCTATAGA", "MvaT", "low group"],
  ["ATATCGAG", "MvaT", "middle group"],
  ["CATAATAA", "MvaT", "high group"],
  ["GAAGTTGA", "MvaT", "low group"],
  ["TACTCCAA", "MvaT", "low group"],
  ["AATACAAA", "MvaT", "high group"],
  ["TCGTGACA", "MvaT", "low group"],
  ["CGATAGCC", "MvaT", "low group"],
  ["GCTATACA", "MvaT", "low group"],
  ["GGTATAAA", "MvaT", "high group"],
  ["CGTATAAC", "MvaT", "low group"],
  ["CCTATATA", "MvaT", "high group"],
  ["AACTCGTC", "MvaT", "low group"],
  ["GTATATCA", "MvaT", "middle group"],
  ["AATTAATA", "MvaT", "high group"],
  ["AATTAACA", "MvaT", "high group"],
  ["CTATATCC", "MvaT", "low group"],
  ["AATAAGAA", "MvaT", "high group"],
  ["GTAAGCGA", "MvaT", "low group"],
  ["AGCTGGCC", "MvaT", "low group"],
  ["CAAGTAGA", "MvaT", "low group"],
  ["CCTAACCG", "MvaT", "low group"],
  ["GAGTTAAA", "MvaT", "middle group"],
  ["GCTAATAA", "MvaT", "high group"],
  ["TATTAAGA", "MvaT", "high group"],
  ["GCCACACC", "MvaT", "low group"],
  ["CCTATATC", "MvaT", "low group"],
  ["ACATATCG", "MvaT", "middle group"],
  ["AAGTTAAT", "MvaT", "high group"],
  ["AAGTTAAC", "MvaT", "high group"],
  ["CTGTTTCA", "MvaT", "low group"],
  ["AATTAATC", "MvaT", "high group"],
  ["AGTAATAT", "MvaT", "high group"],
  ["AATTAAGA", "MvaT", "middle group"]
]}

All values here come from the supplement of paper PMC4466236.
